Cited source: patent US20210300936A1

- system-under-test: human A2A receptor (A2AR) (Homo sapiens)
- procedure-summary: Luciferase reporter assay (HEK293-A2AR-luc2p/CRE/Hygro cells, 3 nM CGS21680)
- test-conditions: 3 nM CGS21680, 5 h incubation
- Experimental: HEK293 cells were maintained in Dulbecco's modified Eagle's medium (DMEM, Gibco) supplemented with 10% fetal bovine serum (FBS, Thermo Scientific), 100 units/mL penicillin (Gibco), and 0.1 mg/mL streptomycin (Gibco) in a humidified 37° C. environment with 5% C02. Plasmid encoding wild-type human A2A receptor (A2AR) (in pcDNA3.1) was synthesized by Genscript (Nanjing, China). […] Expression level of A2AR in each single cell clone was determined using immunoblotting and FACS method. […]
pIC50: −log10 of the molar value.
quantity: pIC50

Please review the following examples before continuing.
CNCCOc1ccc(N2CCN(C(=O)C(C)(c3ccccc3)n3ncc4c3nc(N)n3nc(-c5ccco5)nc43)CC2)cc1 (stereo not shown); 8.32
COCCOc1ccc(N2CC(C)N(C(=O)C(c3ccccc3)n3ncc4c3nc(N)n3nc(-c5ccco5)nc43)C(C)C2)cc1 (stereo not shown); 7.74
CC(C(=O)N1CCN(c2ccccc2F)CC1)(c1ccccc1)n1ncc2c1nc(N)n1nc(-c3ccco3)nc21 (stereo not shown); 8.47
COCCOc1ccc(N2CCN(C(=O)C(c3ccc(F)cc3)n3ncc4c3nc(N)n3nc(-c5ccco5)nc43)CC2)cc1 (stereo not shown); 8.12

1: CCC(C(=O)N1CCN(c2ccc(OCCOC)cc2)CC1)n1ncc2c1nc(N)n1nc(-c3ccco3)nc21 (stereo not shown)
2: CCCCC(C(=O)N1CCN(c2ccc(OCCN(C)C)cc2)CC1)n1ncc2c1nc(N)n1nc(-c3ccco3)nc21 (stereo not shown)
Which of the two items, 1 and 2 , has the greater recorded pIC50? Reply briefly: the label of your chosen item. 2

---

- system-under-test: human adenosine receptor A1 (A1R) (Homo sapiens, UniProt P30542)
- Sequence (P30542 whole entry): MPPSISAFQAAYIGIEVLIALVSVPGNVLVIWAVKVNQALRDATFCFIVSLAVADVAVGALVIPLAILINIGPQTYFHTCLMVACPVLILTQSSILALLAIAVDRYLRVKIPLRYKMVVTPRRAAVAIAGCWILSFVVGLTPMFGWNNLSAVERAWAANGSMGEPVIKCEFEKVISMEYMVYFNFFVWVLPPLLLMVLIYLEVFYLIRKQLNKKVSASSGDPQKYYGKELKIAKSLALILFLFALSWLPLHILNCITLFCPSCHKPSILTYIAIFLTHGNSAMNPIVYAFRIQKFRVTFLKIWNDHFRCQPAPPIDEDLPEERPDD
quantity: Ki (µM)

Please review the following examples before continuing.
COCCOc1ccc(N2CCN(C(=O)C(CC(C)C)n3ncc4c3nc(N)n3nc(-c5ccco5)nc43)CC2)cc1 (single isomer, unassigned) [Compound A16a]; 0.057
COCCOc1ccc(N2CCN(CCn3ncc4c3nc(N)n3nc(-c5ccco5)nc43)CC2)cc1 [Preladenant, preladenant, reference compound]; 0.337
CCCCC(C(=O)N1CCN(c2ccc(OCCOC)cc2)CC1)n1ncc2c1nc(N)n1nc(-c3ccco3)nc21 (single isomer, unassigned) [Compound A10b]; 0.26

I: COCCOc1ccc(N2CCN(C(=O)Cn3cc4c(nc(N)n5nc(-c6ccco6)nc45)n3)CC2)cc1 [Compound D2]
II: CC(C)CC(C(=O)N1CCN(c2ccc(F)cc2F)CC1)n1ncc2c1nc(N)n1nc(-c3ccco3)nc21 (single isomer, unassigned) [Compound A22b]
III: COCCOc1ccc(N2CCN(C(=O)Cn3ncc4c3nc(N)n3nc(-c5ccco5)nc43)CC2)cc1 [Compound D1]
IV: COCCOc1ccc(N2CCN(C(=O)C(CC(C)C)n3ncc4c3nc(N)n3nc(-c5ccco5)nc43)CC2)cc1 (single isomer, unassigned) [Compound A16b]
Sequence the entries by Ki, beginning with the highest number. Write the labels in rank order as requested. IV, III, II, I
(IV: 0.77 µM, III: 0.052 µM, II: 0.018 µM, I: 0.00081 µM)

---

- system-under-test: human A2A receptor (A2AR) (Homo sapiens)
- procedure-summary: Luciferase reporter assay (HEK293-A2AR-luc2p/CRE/Hygro cells, 3 nM CGS21680)
- Assay type: cell-based
- test-conditions: 3 nM CGS21680, 5 h incubation
quantity: IC50 (nM)

COCCOc1ccc(N2CCN(C(=O)C(C)(c3ccccc3)n3ncc4c3nc(N)n3nc(-c5ccco5)nc43)C[C@H]2C)cc1 (stereo partly drawn); 15.6
Nc1nc2c(cnn2C(C(=O)N2CCc3cc(F)ccc3C2)c2ccccc2)c2nc(-c3ccco3)nn12 (single isomer, unassigned) [Compound B7b]; 0.5
CO[C@H]1CCCN(C(=O)C(C)(c2ccccc2)n2ncc3c2nc(N)n2nc(-c4ccco4)nc32)C1 (stereo partly drawn); 33.5
CN(C)CCOc1ccc(N2CCN(C(=O)C(c3ccccc3)n3ncc4c3nc(N)n3nc(-c5ccco5)nc43)CC2)cc1 (stereo not drawn); 2.5

I: COCCOc1cc(F)c(N2CCN(C(=O)[C@@](C)(c3ccccc3)n3ncc4c3nc(N)n3nc(-c5ccco5)nc43)CC2)cc1F [Compound A65b]
II: CCCC(C(=O)N1CCN(c2ccc(OCCOC)cc2)CC1)n1cc2c(nc(N)n3nc(-c4ccco4)nc23)n1 (single isomer, unassigned) [Compound C5b]
Which of the two items, I and II , has the greater recorded IC50? Reply briefly: the label of your chosen item. II

---

- system-under-test: human A2A receptor (A2AR) (Homo sapiens, UniProt P29274)
- Sequence (P29274 whole entry): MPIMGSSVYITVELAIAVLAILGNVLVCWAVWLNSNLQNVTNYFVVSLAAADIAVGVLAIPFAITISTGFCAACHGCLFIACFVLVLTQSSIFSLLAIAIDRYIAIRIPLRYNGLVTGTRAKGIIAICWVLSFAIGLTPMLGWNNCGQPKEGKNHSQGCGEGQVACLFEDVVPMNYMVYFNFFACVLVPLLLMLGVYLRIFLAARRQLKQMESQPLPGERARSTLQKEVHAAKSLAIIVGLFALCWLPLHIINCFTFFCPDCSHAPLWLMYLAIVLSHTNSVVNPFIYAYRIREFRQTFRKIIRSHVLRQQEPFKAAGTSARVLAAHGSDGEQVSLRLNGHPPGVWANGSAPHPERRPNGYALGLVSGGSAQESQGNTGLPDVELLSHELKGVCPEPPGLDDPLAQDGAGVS
- procedure-summary: Luciferase reporter assay (HEK293-A2AR-luc2p/CRE/Hygro cells, 3 nM CGS21680)
- test-conditions: 3 nM CGS21680, 5 h incubation
quantity: IC50 (nM)

COCCOc1ccc(N2CCN(C(=O)C(c3cccc(F)c3)n3ncc4c3nc(N)n3nc(-c5ccco5)nc43)CC2)cc1 (stereo not shown) [Compound A42]; 5.1
COCCOc1ccc(N2CCN(C(=O)C(Cc3ccccc3)n3ncc4c3nc(N)n3nc(-c5ccco5)nc43)CC2)cc1 (stereo not shown) [Compound A19]; 6.5
CCCC(C(=O)N1CCN(c2ccc(OCCN(C)C)cc2)CC1)n1ncc2c1nc(N)n1nc(-c3ccco3)nc21 (stereo not shown) [Compound A39]; 5.3

P: Nc1nc2c(cnn2C(C(=O)N2CCc3ccc(OC(F)(F)F)cc3C2)c2ccccc2)c2nc(-c3ccco3)nn12 (stereo not shown) [Compound B6]
Q: COCCOc1ccc(N2CCN(C(=O)C(C)n3ncc4c3nc(N)n3nc(-c5ccco5)nc43)CC2)cc1 (single isomer, unassigned) [Compound A1a]
R: CC(C(=O)N1CCN(c2ccccc2C(=O)N2CCCCC2)CC1)(c1ccccc1)n1ncc2c1nc(N)n1nc(-c3ccco3)nc21 (stereo not shown) [Compound A99]
S: COCCOc1ccc(N2CCN(C(=O)Cn3cc4c(nc(N)n5nc(-c6ccco6)nc45)n3)CC2)cc1 [Compound D2]
Sequence the entries by IC50, beginning with the highest number. Write the labels in rank order as requested. Q, S, R, P

---

- system-under-test: human A2A receptor (A2AR) (Homo sapiens)
- procedure-summary: Luciferase reporter assay (HEK293-A2AR-luc2p/CRE/Hygro cells, 3 nM CGS21680)
- test-conditions: 3 nM CGS21680, 5 h incubation
quantity: IC50 (nM)

1: COCCOc1ccc(N2CCN(C(=O)C(C3CC3)n3cc4c(nc(N)n5nc(-c6ccco6)nc45)n3)CC2)cc1 (stereo not shown) [Compound C16]
2: Nc1nc2c(cnn2C(C(=O)N2CCCCC2)c2ccccc2)c2nc(-c3ccco3)nn12 (stereo not shown)
3: CC(C(=O)N1CCN(c2ccc(OCCN)cc2)CC1)n1cc2c(nc(N)n3nc(-c4ccco4)nc23)n1 (stereo not shown)
Sort the molecules on IC50; start with the lowest figure. Write the labels in rank order as requested. 2, 1, 3

---

- system-under-test: human A2A receptor (A2AR) (Homo sapiens, UniProt P29274)
- procedure-summary: Luciferase reporter assay (HEK293-A2AR-luc2p/CRE/Hygro cells, 3 nM CGS21680)
- test-conditions: 3 nM CGS21680, 5 h incubation
pIC50: −log10 of the molar value.
quantity: pIC50

Please review the following examples before continuing.
Nc1nc2c(cnn2C(C(=O)N2CCc3ccc(Cl)cc3C2)c2ccccc2)c2nc(-c3ccco3)nn12 (stereo not drawn); 8.52
CNC(=O)c1ccc(N2CCN(C(=O)C(C)(c3ccccc3)n3ncc4c3nc(N)n3nc(-c5ccco5)nc43)CC2)cc1 (stereo not drawn); 8.57

A: COCCOCCOc1ccc(N2CCN(C(=O)C(CC(C)C)n3cc4c(nc(N)n5nc(-c6ccco6)nc45)n3)CC2)cc1 (stereo not drawn)
B: COCCOCCOc1ccc(N2CCN(C(=O)C(CC(C)C)n3ncc4c3nc(N)n3nc(-c5ccco5)nc43)CC2)cc1 (single isomer, unassigned) [Compound A17b]
C: COCCOc1ccc(N2CCN(C(=O)C(c3ccccc3)n3ncc4c3nc(N)n3nc(-c5ccco5)nc43)CC2)c(F)c1 (single isomer, unassigned) [Compound A44a]
D: COCCOCCOc1ccc(N2CCN(C(=O)C(CC(C)C)n3ncc4c3nc(N)n3nc(-c5ccco5)nc43)CC2)cc1 (single isomer, unassigned) [Compound A17a]
Please order the records by their reported pIC50, lowest number first. Write the labels in rank order as requested. B, A, C, D

---

Below are Ki values recorded for human adenosine receptor A2A (A2AR) (Homo sapiens, UniProt P29274).
quantity: Ki (nM)

Please review the following examples before continuing.
CCCCC(C(=O)N1CCN(c2ccc(OCCOC)cc2)CC1)n1ncc2c1nc(N)n1nc(-c3ccco3)nc21 (single isomer, unassigned) [Compound A10a]; 2.3
CCCC(C(=O)N1CCN(c2ccc(OCCOC)cc2F)CC1)n1ncc2c1nc(N)n1nc(-c3ccco3)nc21 (single isomer, unassigned) [Compound A24a]; 1.4

I: COCCOc1ccc(N2CCN(C(=O)[C@@](C)(c3ccccc3)n3ncc4c3nc(N)n3nc(-c5ccco5)nc43)CC2)cc1 [Compound A63b]
II: COCCOc1ccc(N2CCN(C(=O)C(c3ccccc3)n3ncc4c3nc(N)n3nc(-c5ccco5)nc43)CC2)cc1 (single isomer, unassigned) [Compound A13a]
Which of the two items, I and II , has the greater recorded Ki? Reply briefly: the label of your chosen item. II
